biological target: Melanocortin receptor 3 (Homo sapiens, UniProt P41968); experiment: Binding affinity for melanocortin-3 receptor transfected in HEK 293 cells using [125I]NDP-MSH as radioligand
Sequence (P41968 whole entry): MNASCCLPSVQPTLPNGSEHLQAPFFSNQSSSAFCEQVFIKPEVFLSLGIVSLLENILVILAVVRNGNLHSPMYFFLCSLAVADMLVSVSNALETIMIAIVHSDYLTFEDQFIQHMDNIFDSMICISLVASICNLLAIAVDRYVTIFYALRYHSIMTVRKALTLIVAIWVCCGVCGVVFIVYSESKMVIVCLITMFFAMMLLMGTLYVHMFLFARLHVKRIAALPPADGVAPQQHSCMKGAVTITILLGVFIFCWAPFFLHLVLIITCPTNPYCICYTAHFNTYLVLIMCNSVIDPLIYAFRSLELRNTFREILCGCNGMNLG
Could you please report measured pKi for the items listed next?
Reminder that pKi means the negative base-10 logarithm of the concentration expressed in mol/L.

Query string: # query: pKi | item O=C(N[C@H](Cc1ccc(Cl)cc1Cl)C(=O)N1CCN(c2ccccc2CNCCc2cccs2)CC1)N1CCCC1 | system: Melanocortin receptor 3 (Homo sapiens, UniProt P41968)
Result string: 6.17

Query string: # query: pKi | item CCOC(=O)N[C@H](Cc1ccc(Cl)cc1Cl)C(=O)N1CCN(c2ccccc2CNCCc2cccs2)CC1 | system: Melanocortin receptor 3 (Homo sapiens, UniProt P41968)
Result string: 6.10

Query string: # query: pKi | item NCCCC(=O)N[C@H](Cc1ccc(Cl)cc1Cl)C(=O)N1CCN(c2ccccc2CNCCc2cccs2)CC1 | system: Melanocortin receptor 3 (Homo sapiens, UniProt P41968)
Result string: 6.02

Query string: # query: pKi | item CCNC(=O)N[C@H](Cc1ccc(Cl)cc1Cl)C(=O)N1CCN(c2ccccc2CNCCc2cccs2)CC1 | system: Melanocortin receptor 3 (Homo sapiens, UniProt P41968)
Result string: 6.10

Query string: # query: pKi | item CC(C)(C)NC(=O)N[C@H](Cc1ccc(Cl)cc1Cl)C(=O)N1CCN(c2ccccc2CNCCc2cccs2)CC1 | system: Melanocortin receptor 3 (Homo sapiens, UniProt P41968)
Result string: 6.00

Query string: # query: pKi | item O=C(NC1CC1)N[C@H](Cc1ccc(Cl)cc1Cl)C(=O)N1CCN(c2ccccc2CNCCc2cccs2)CC1 | system: Melanocortin receptor 3 (Homo sapiens, UniProt P41968)
Result string: 6.07

Query string: # query: pKi | item O=C(N[C@H](Cc1ccc(Cl)cc1Cl)C(=O)N1CCN(c2ccccc2CNCCc2cccs2)CC1)c1ccccc1 | system: Melanocortin receptor 3 (Homo sapiens, UniProt P41968)
Result string: 5.80

Query string: # query: pKi | item COC(=O)CCC(=O)N[C@H](Cc1ccc(Cl)cc1Cl)C(=O)N1CCN(c2ccccc2CNCCc2cccs2)CC1 | system: Melanocortin receptor 3 (Homo sapiens, UniProt P41968)
Result string: 6.08

Query string: # query: pKi | item CN(C)C(=O)N[C@H](Cc1ccc(Cl)cc1Cl)C(=O)N1CCN(c2ccccc2CNCCc2cccs2)CC1 | system: Melanocortin receptor 3 (Homo sapiens, UniProt P41968)
Result string: 6.25

Query string: # query: pKi | item CC(=O)N[C@H](Cc1ccc(Cl)cc1Cl)C(=O)N1CCN(c2ccccc2CNCCc2cccs2)CC1 | system: Melanocortin receptor 3 (Homo sapiens, UniProt P41968)
Result string: 6.24

Query string: # query: pKi | item CC(C)OC(=O)N[C@H](Cc1ccc(Cl)cc1Cl)C(=O)N1CCN(c2ccccc2CNCCc2cccs2)CC1 | system: Melanocortin receptor 3 (Homo sapiens, UniProt P41968)
Result string: 5.89

Query string: # query: pKi | item CC(C)NC(=O)N[C@H](Cc1ccc(Cl)cc1Cl)C(=O)N1CCN(c2ccccc2CNCCc2cccs2)CC1 | system: Melanocortin receptor 3 (Homo sapiens, UniProt P41968)
Result string: 6.35

Query string: # query: pKi | item O=C(NC1CCCC1)N[C@H](Cc1ccc(Cl)cc1Cl)C(=O)N1CCN(c2ccccc2CNCCc2cccs2)CC1 | system: Melanocortin receptor 3 (Homo sapiens, UniProt P41968)
Result string: 6.24

Query string: # query: pKi | item COC(=O)N[C@H](Cc1ccc(Cl)cc1Cl)C(=O)N1CCN(c2ccccc2CNCCc2cccs2)CC1 | system: Melanocortin receptor 3 (Homo sapiens, UniProt P41968)
Result string: 6.09

Query string: # query: pKi | item O=C(NCCO)N[C@H](Cc1ccc(Cl)cc1Cl)C(=O)N1CCN(c2ccccc2CNCCc2cccs2)CC1 | system: Melanocortin receptor 3 (Homo sapiens, UniProt P41968)
Result string: 6.41

Query string: # query: pKi | item O=C(N[C@H](Cc1ccc(Cl)cc1Cl)C(=O)N1CCN(c2ccccc2CNCCc2cccs2)CC1)OCCF | system: Melanocortin receptor 3 (Homo sapiens, UniProt P41968)
Result string: 6.10
